For each of the compounds below, state its EC90.
System: SARS-CoV-2
Test: Combination of RdRp inhibitors with SARS-CoV-2 nsp14 inhibitors in infected Calu-3 cells, synergy
Type: cell-based
Settings: Severe acute respiratory syndrome coronavirus 2, Calu-3, read-out: EC90 mean
Answers without a unit are incomplete; give the number and then its unit.

Check out these entries, answers already filled in.
Compound	EC90
COC(=O)N[C@H](C(=O)N1CCC[C@H]1c1nc2cc([C@H]3CC[C@H](c4cc5nc([C@@H]6CCCN6C(=O)[C@@H](NC(=O)OC)[C@@H](C)OC)[nH]c5cc4F)N3c3cc(F)c(N4CCC(c5ccc(F)cc5)CC4)c(F)c3)c(F)cc2[nH]1)[C@@H](C)OC	4.2 µM
COC(=O)N[C@H](C(=O)N1CCC[C@H]1c1nc(-c2ccc(-c3ccc(-c4c[nH]c([C@@H]5CCCN5C(=O)[C@@H](NC(=O)OC)C(C)C)n4)cc3)cc2)c[nH]1)C(C)C	3.8 µM
CCC(CC)COC(=O)[C@H](C)N[P@](=O)(OC[C@H]1O[C@@](C#N)(c2ccc3c(N)ncnn23)[C@H](O)[C@@H]1O)Oc1ccccc1 [Remdesivir, remdesivir, reference compound]	0.4 µM
c1coc(CNc2ncnc3[nH]cnc23)c1	8 µM
CC(C)C(=O)OC[C@H]1O[C@@H](n2ccc(NO)nc2=O)[C@H](O)[C@@H]1O [MK-4482, molnupiravir, reference compound]	7 µM

Summary for this compound, "COC(=O)N[C@H](C(=O)N1CCC[C@H]1C(=O)Nc1ccc([C@@H]2CC[C@@H](c3ccc(NC(=O)[C@@H]4CCCN4C(=O)[C@@H](NC(=O)OC)C(C)C)cc3)N2c2ccc(C(C)(C)C)cc2)cc1)C(C)C" : EC90 is 3.3 µM
